biological target: Cytochrome P450 3A4 (Homo sapiens); test: Cytochrome panel assay with activity outcomes; conditions: recombinant CYP, pro-luciferin dealkylation, luminescence, p450-cyp3a4; series mostly up to 57.1 µM
Screen size: about 16,000 compounds; about 5,100 (32%) were called active. About 25% were inconclusive and are not listed. Calls follow the shape of the dose curve; as a rule, active = well fitted curve in the direction sought with a large enough effect; inconclusive = small, poorly fitted or top-dose-only effect, or effect the other way; inactive = no such curve, though single readings can be large or run the other way. This is one part of the list.
Respond only with the outcome that fits, drawn from active, inactive

[Q] Which result was noted for this molecule in the test: COc1ccc(-n2c(=O)cnc3cnc(Oc4ccccc4)nc32)cc1
[A] active

[Q] Recorded call for Cc1cc(C)nc(SCc2nnc(SCC(N)=O)n2Cc2ccco2)n1 ?
[A] active

[Q] For CCCCOC(=O)C1=C(C)Nc2ncnn2C1c1cc(OC)ccc1OC (stereo not given) , what call appears in the results of this test?
[A] active

[Q] Assay outcome for CN(C1CCCCC1)S(=O)(=O)c1ccc(NC(=S)NC(=O)c2cccs2)cc1 : what was it?
[A] active

[Q] Could you kindly confirm the outcome this assay logged for CCCC(=O)Nc1ccc(C(=O)NNC(=S)NC(=O)c2cccs2)cc1 ?
[A] inactive

[Q] Query: recorded result category for Cc1ccc(Sc2cc(Cl)nc(N)n2)cc1 in this test
[A] inactive

[Q] Please let me know the test result on file for CCN1C(=O)C=CC1=O .
[A] inactive

[Q] # lookup: test call for COc1ccc2c(c1)Cc1cc(N=[N+]([O-])c3ccc4c(c3)Cc3cc(OC)ccc3-4)ccc1-2
[A] active

[Q] In this assay, the call recorded for O=C(Cc1ccc(-n2c(=O)[nH]c3ccccc3c2=O)cc1)N1CCN(c2cccc(Cl)c2)CC1 was what?
[A] active

[Q] Assay result, entry CNC(=O)c1ccc(-c2sc3nc(N4CCOCC4)c4c(c3c2N)CC(C)(C)OC4)o1 — outcome?
[A] active

[Q] Tell me the recorded outcome of this test for CC1CCCC(NC(=O)CCn2c(=O)oc3ccccc32)C1C (stereo not given) .
[A] active

[Q] # lookup: test call for CCNc1ncc2nc(-c3ccc(F)cc3)c(=O)n(C)c2n1
[A] inactive

[Q] Hi team, can someone confirm the assay call for COC(=O)[C@H](CCSC)NC(=O)NCc1ccccc1F ?
[A] active

[Q] Name the outcome recorded for O=C(CSc1nnc(-c2ccccn2)n1Cc1ccco1)Nc1ccc2c(c1)OCO2 in the assay.
[A] active

[Q] Give the logged outcome of this assay for the following molecule: Cc1cc(NC(=O)CSc2nnc(-c3ccccc3)n2Cc2ccco2)no1
[A] active

[Q] Status in this test for CCC/C=C(\CCC)C(NC(=O)c1cccs1)c1ccc(C(=O)OC)cc1 (stereo not given) ?
[A] active

[Q] Hi team, can someone confirm the assay call for COc1ccc(-n2c(=O)cnc3cnc(Oc4cccc(Cl)c4)nc32)cc1 ?
[A] active

[Q] Dear all, I need the recorded test outcome for N#Cc1cc(N)ccc1Sc1ccc(Cl)cc1 , thank you.
[A] active

[Q] I'd appreciate the recorded outcome for N#Cc1cccc(-c2nc(NCCN3CCOCC3)c3ccccc3n2)c1 from this test.
[A] active

[Q] # fetch the recorded call for CCC/C=C(\CCC)C(NC(=O)c1cccs1)c1ccc(C(F)(F)F)cc1 (stereo not given) here
[A] active

[Q] Please share the test call associated with CCOc1cc(CNCCCN2CCOCC2)cc(Br)c1OCC(=O)Nc1cccc(C(F)(F)F)c1 .
[A] active

[Q] Dear colleague, could you share the recorded outcome for COc1cc(OC)c(C2C(C(=O)Nc3ccc(C)cc3C)=C(C)Nc3ncnn32)cc1OC (stereo not given) when you have a moment?
[A] active

[Q] What did the test return for CC1(C)CCC(NC(=O)[C@H](N)CCC(=O)O)CC1 ?
[A] inactive

[Q] Name the outcome recorded for O=c1cnc2cnc(Oc3cccc(Cl)c3)nc2n1C1CC1 in the assay.
[A] inactive

[Q] Please let me know the test result on file for CCOC(=O)C1=C(C)Nc2ncnn2C1c1cccnc1 (stereo not given) .
[A] active

[Q] Call for entry CCCCCNCc1cccc(Br)c1 :
[A] inactive

[Q] Recorded call for CN(C)CCNc1ncnc2c1sc1nc(N3CCOCC3)c3c(c12)CC(C)(C)SC3 ?
[A] inactive

[Q] Tell me the assay call for O=S(=O)(Nc1ccc2c(c1)OCCO2)c1cccc2cccnc12 please.
[A] active

[Q] Which result was noted for this molecule in the test: Cn1c(-c2ccc(F)cc2)cnc1NCc1ccc(F)cc1
[A] inactive

[Q] # lookup: test call for COc1ccc(NC(=O)COc2ccc(CNCCCN3CCOCC3)cc2OC)cc1
[A] inactive

[Q] # fetch the recorded call for C(=C1/CCCC2=C1Nc1ncnn1C2c1ccccc1)/c1ccccc1 (stereo not given) here
[A] inactive

[Q] Tell me the assay call for CCOC(=O)N1CCN(c2c(-c3ccccc3)c3cc(Cl)ccc3[nH]c2=O)CC1 please.
[A] inactive

[Q] What is the recorded call for this molecule in the test? COc1ccc(NC(=O)c2ccc(-n3cccn3)nc2)c(OC)c1
[A] inactive

[Q] Field: outcome | Entry: N#Cc1cccc(-c2nc3cnc(N4CCOCC4)nc3n(C[C@H]3CCCO3)c2=O)c1
[A] inactive

[Q] Query: recorded result category for Cc1ccccc1C(=O)Nc1cccc(NC(=S)NC(=O)c2cccs2)c1 in this test
[A] active

[Q] Lab log entry: CCC/C=C(\CCC)C(NS(=O)(=O)c1cccs1)c1ccc(C(=O)OC)cc1 (stereo not given) — outcome as called in the assay?
[A] active

[Q] Record lookup: outcome of this test for COc1cc(NC(=S)NC(=O)c2c(OC)cccc2OC)ccc1NC(=O)c1cccs1 ?
[A] active

[Q] Query: recorded result category for CC(C(=O)NC1CCCC1)N(C(=O)c1snc(C(N)=O)c1N)c1ccc2c(c1)OCCO2 (stereo not given) in this test
[A] active

[Q] Write down the call the test reported for this molecule. Item: N#Cc1cc(-c2ccc(Cl)cc2)cnc1Sc1ccccc1
[A] inactive

[Q] Could you kindly confirm the outcome this assay logged for N#CC(=C1CCCC1)c1nc(-c2ccccc2)cs1 ?
[A] active

[Q] In this assay, the call recorded for COc1ccc(/C=N/N(C(C)=O)c2nc(-c3ccc(C)cc3)cs2)cc1 was what?
[A] inactive

[Q] Hi, sorry to bother you, what did the test record for Cc1ccc(-c2csc(C(C#N)=C3CCCC3)n2)cc1 ?
[A] active

[Q] For this molecule, state the assay outcome: Cn1c(-c2ccc(F)cc2)cnc1NCc1cccc(F)c1
[A] active

[Q] In this assay, the call recorded for CN1CCC(=NNC(=O)CSCc2ccccc2)CC1 was what?
[A] active

[Q] What was the test verdict on COc1cc([C@@H](O)CO)ccc1OS(=O)(=O)O ?
[A] inactive
